Attribution: ChEMBL document CHEMBL1157539

System: Plasmodium falciparum
Test: GSK_TCMDC: Inhibition of Plasmodium falciparum 3D7 in whole erythrocytes, using parasite LDH activity as an index of growth.
Assay type: functional, organism-based
Details: Plasmodium falciparum, 3D7
property-name: log10(XC50) (log10 of the value in nM)
A difference of one corresponds to tenfold XC50; all values are log10 with XC50 in nM.

Below, each entry is followed by its recorded log10(XC50) result.
{"molecule": "CC(Oc1ccc(NC(=O)c2cccs2)cc1)C(=O)c1ccc(Cl)cc1 (stereo not given)", "tested-system": "Plasmodium falciparum", "log10(XC50)": 2.89}
{"molecule": "CCN(CCCN1CCCCC1)c1cc(C)nc(Nc2ccc(C)cc2Cl)n1", "tested-system": "Plasmodium falciparum", "log10(XC50)": 2.53}
{"molecule": "O=C(/C=C/c1ccc(Cl)c(Cl)c1)NCCCCCN1CCC(NC(=O)Nc2ccc(C(F)(F)F)cc2)CC1", "tested-system": "Plasmodium falciparum", "log10(XC50)": 2.88}
{"molecule": "O=C(/C=C/c1ccc(Cl)c(Cl)c1)NCCCCCN1CCCC(CCCNC(=O)Nc2ccc(C(F)(F)F)cc2)C1 (stereo not given)", "tested-system": "Plasmodium falciparum", "log10(XC50)": 2.72}
{"molecule": "CN1CCN(c2cc3c(Nc4ccc5c(cnn5Cc5ccccc5)c4)ncnc3cn2)CC1", "tested-system": "Plasmodium falciparum", "log10(XC50)": 3.05}
{"molecule": "CCCc1ccc(Nc2nc(C)cc(N(CC)CCCN3CCCCC3)n2)cc1", "tested-system": "Plasmodium falciparum", "log10(XC50)": 2.73}

Tell me the measured log10(XC50) of CC1(C)N=C(N)N=C(N)N1c1ccc2ccccc2c1 , please. 1.73

How about Cc1cc(N[C@@H](Cc2ccccc2)C(=O)NCCOc2ccccc2)nc(NCCc2ccc(F)cc2)n1 ? 2.78

How about Cc1cccc(C(=O)N2CCN(Cc3cccc(NC(=O)c4cccs4)c3)CC2)c1 ? 2.34

How about Cc1ccc2[nH]cc(C3CCN(CC4CCC(NC(=O)/C=C/c5ccc(Cl)c(Cl)c5)CC4)CC3)c2c1 (stereo not given) ? 2.92

----------
Tested on: Plasmodium falciparum
Assay: GSK_TCMDC: Inhibition of Plasmodium falciparum 3D7 in whole erythrocytes, using parasite LDH activity as an index of growth.
Format: functional, organism-based
Conditions: Plasmodium falciparum, 3D7
In this section, each of the compounds is paired with its reported XC50.
Respond with the figure and its unit, in that order.

Below, each entry is followed by its recorded XC50 result.
{"smiles-repr": "CC[C@H]1CN2CC[C@H]1C[C@@H]2[C@@H](O)c1ccnc2ccc(OC)cc12", "XC50": "119 nM"}
{"smiles-repr": "N#Cc1cccc(C(=O)Nc2ccc(-c3nc4ccccc4[nH]3)cc2)c1", "XC50": "541 nM"}
{"smiles-repr": "Cc1cccc(CCNC(=O)c2cc(Br)cc(N3CCN(c4ccncc4)CC3)c2)c1", "XC50": "874 nM"}

Tell me the measured XC50 of CO[C@@H]1C[C@@H](C(=O)Nc2ccccc2)N(c2ccc(C#N)c3ccccc23)C1 , please. 907 nM

How about N#CN1CC[C@H](CS(=O)(=O)c2cccc(Br)c2)C1 ? 874 nM

----------
Test system: Plasmodium falciparum
Experiment: GSK_TCMDC: Inhibition of Plasmodium falciparum 3D7 in whole erythrocytes, using parasite LDH activity as an index of growth.
Assay type: functional, organism-based
Conditions: Plasmodium falciparum, 3D7
In this section, each of the compounds is paired with its reported XC50.
Respond numerically; units are µM and should not be typed.

Below, each entry is followed by its recorded XC50 result.
{"compound": "Cc1sc2nc(CN3CCCC3)nc(-n3c(NCCO)nc4ccccc43)c2c1C", "recorded-result": 1.24}
{"compound": "COc1ccc(Cc2cnc3nc(N)nc(N)c3c2C)cc1", "recorded-result": 0.0291}
{"compound": "O=C(Nc1cccc(F)c1)NC1CCN(CCCCCNC(=O)C2CC2c2ccc(Cl)c(Cl)c2)CC1 (stereo not given)", "recorded-result": 0.763}

Tell me the measured XC50 of Fc1ccc(C2N=C(SCCSC3=NC(c4ccc(F)cc4)C(c4ccc(F)cc4)N3)NC2c2ccc(F)cc2)cc1 (stereo not given) , please. 0.912

How about CC[C@H]1CN(Cc2ccco2)CC[C@H]1CCCc1ccnc2ccc(O)cc12 ? 1.27

How about CS(=O)(=O)NCCCNCc1ccc(-c2cccc(-c3nc4cc(F)ccc4[nH]3)c2)cc1 ? 0.804

How about CN1CCc2ccc(NC(=O)Nc3ccc(-c4ccccc4)cc3)cc2C1 ? 0.511

How about Cc1nc2c(=O)sc3ccccc3c2n1Cc1ccccc1 ? 0.881

How about COc1cccc(Nc2nc(NCCO)c3ccccc3n2)c1 ? 0.151

How about COc1ccc2[nH]c(-c3ccccc3)cc(=NN=Cc3ccncc3)c2c1 ? 0.812

How about c1ccc(Oc2ccc(Nc3nncc4ccccc34)cc2)cc1 ? 0.686

How about O=C(NC1CC1)c1cnc(N2CCC(OCc3ccccc3)CC2)c(Cl)c1 ? 1.4

How about CCCN(CCC)S(=O)(=O)c1ccc(C(=O)N2CCC(C(=O)OCC)CC2)cc1 ? 0.803

How about COc1cc(C(F)(F)F)nc2c(CNCCCNc3cc(=O)c4ccccc4[nH]3)scc12 ? 1.18

How about CC(=O)Nc1nc(C(=O)Nc2ccc(-c3cccc(-c4nc5cc(F)ccc5[nH]4)c3)cc2)cs1 ? 0.291

How about COc1cc(Cc2cnc(N)nc2N)cc(OCCn2ccccc2=O)c1OC ? 0.773

How about N=C1NC(c2ccccc2)(c2ccccc2)C(=O)N1CC=Cc1ccccc1 ? 0.598
